The reported measurements were obtained from paper PMC12169609.

Target: Sirt2_56–356 (Homo sapiens, UniProt Q8IXJ6)
Construct: human strep-tagged Sirt2_56–356 was expressed and purified; strep-tag; made in house
Sequence (Q8IXJ6 56-356): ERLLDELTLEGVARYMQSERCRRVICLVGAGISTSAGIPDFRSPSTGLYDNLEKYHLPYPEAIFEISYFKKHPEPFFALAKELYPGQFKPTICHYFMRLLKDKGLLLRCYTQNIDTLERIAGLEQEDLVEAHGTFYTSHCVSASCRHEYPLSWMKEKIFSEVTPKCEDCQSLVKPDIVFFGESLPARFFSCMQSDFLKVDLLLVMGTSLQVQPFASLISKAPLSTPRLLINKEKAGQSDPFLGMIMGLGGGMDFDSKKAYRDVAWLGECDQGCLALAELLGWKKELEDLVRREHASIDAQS
Test: Fluorescence thermal shift assay (DSF)
Type: binding
Conditions: 2000 µM compound, 6.0 μM Sirt2
measured-property: FTS-Assay Thermal shift at 2000 µM
Report as: number unit

Need FTS-Assay Thermal shift at 2000 µM, item CCOC(=O)Cc1cccc(Cl)c1
0.9 °C

Need FTS-Assay Thermal shift at 2000 µM, item CC(=O)Nc1ccc2c(c1)CCC2
0.1 °C

Need FTS-Assay Thermal shift at 2000 µM, item CC(=O)c1c(O)cccc1OCCC(C)C
1.6 °C

Need FTS-Assay Thermal shift at 2000 µM, item C#Cc1ccc(-c2cnco2)cc1
0.0 °C

Need FTS-Assay Thermal shift at 2000 µM, item COC(=O)c1sccc1-n1cccc1
0.5 °C

Need FTS-Assay Thermal shift at 2000 µM, item CN(C(=O)c1cccs1)C1CC2CCC1C2 (stereo not shown)
0.7 °C

Need FTS-Assay Thermal shift at 2000 µM, item c1ccc2c(CN3CCOCC3)csc2c1
0.7 °C
